Parameter Control of weed species EPHHL: see the listing below.
Tested on: Euphorbia heterophylla (EPHHL)
Assay: Post-emergence efficacy, glasshouse
Format: in vivo
Conditions: 500 g/Ha, after 13 days, 100=total damage to plant, 0=no damage to plant
assay_readout: Control of weed species EPHHL

>>> observed_result("C=CCOP(=O)([O-])c1c[n+](C)nc2ccccc12 [Composition C5]")
90
>>> observed_result("C[n+]1cc(P(=O)([O-])OCc2ccccc2)c2ccccc2n1 [Composition C22]")
60
>>> observed_result("COP(=O)([O-])c1c[n+](C)nc2ccc(C)cc12 [Composition C13]")
100
>>> observed_result("CCCOP(=O)([O-])c1c[n+](C)nc2ccccc12 [Composition C21]")
100
>>> observed_result("CCCCOP(=O)([O-])c1c[n+](C)nc2ccccc12 [Composition C12]")
100
>>> observed_result("COP(=O)([O-])c1c[n+](C)nc2ccc(C(F)(F)F)cc12 [Composition C19]")
0
>>> observed_result("CCCCOP(=O)(O)c1c[n+](C)nc2ccccc12.O=C([O-])C(F)(F)F [Composition C2]")
100
>>> observed_result("COP(=O)([O-])c1c[n+](C)nc2ccccc12 [Composition C27]")
100

----------
Test system: Setaria faberi (SETFA)
Assay: Post-emergence efficacy, glasshouse
Assay type: in vivo
Conditions: 1000 g/Ha, after 13 days, 100=total damage to plant, 0=no damage to plant
assay_readout: Control of weed species SETFA

>>> observed_result("C[n+]1cc(P(=O)([O-])OCC2CCCO2)c2ccccc2n1 (centres unmarked)")
80
>>> observed_result("C[n+]1cc(P(=O)([O-])OCC(F)(F)F)c2ccccc2n1")
90
>>> observed_result("CCOP(=O)(O)c1c[n+](C)nc2ccccc12.O=C([O-])C(F)(F)F")
80
>>> observed_result("COP(=O)([O-])c1c[n+](C)nc2cc(C)ccc12")
90
>>> observed_result("CCOP(=O)(O)c1c[n+](C)nc2ccccc12.[Cl-]")
90
>>> observed_result("COP(=O)([O-])c1c[n+](C)nc2c(C)cccc12")
50
>>> observed_result("C[n+]1cc(P(=O)([O-])OCC2CC2)c2ccccc2n1")
90
>>> observed_result("COCCOP(=O)([O-])c1c[n+](C)nc2ccccc12")
100

----------
Test system: Echinochloa crus-galli (ECHCG)
Assay: Post-emergence efficacy, glasshouse
Assay type: in vivo
Details: 1000 g/Ha, after 13 days, 100=total damage to plant, 0=no damage to plant
assay_readout: Control of weed species ECHCG

>>> observed_result("CCOP(=O)(O)c1c[n+](C)nc2ccccc12.[Cl-]")
70
>>> observed_result("C[n+]1cc(P(=O)([O-])OCC(F)(F)F)c2ccccc2n1")
100
>>> observed_result("COc1cccc2c(P(=O)([O-])OC)c[n+](C)nc12")
100
>>> observed_result("CC(C)OP(=O)([O-])c1c[n+](C)nc2ccccc12")
100
>>> observed_result("COP(=O)([O-])c1c[n+](C)nc2cc(C(F)(F)F)ccc12")
10
>>> observed_result("CC(C)COP(=O)([O-])c1c[n+](C)nc2ccccc12")
60
>>> observed_result("COP(=O)([O-])c1c(C)[n+](C)nc2ccccc12")
40

----------
Tested on: Chenopodium album (CHEAL)
Assay: Post-emergence efficacy, glasshouse
Assay type: in vivo
Details: 1000 g/Ha, after 13 days, 100=total damage to plant, 0=no damage to plant
Parameter Control of weed species CHEAL: see the listing below.
assay_readout: Control of weed species CHEAL

>>> observed_result("COP(=O)([O-])c1c[n+](C)nc2c(C)cccc12")
50
>>> observed_result("COCCOP(=O)([O-])c1c[n+](C)nc2ccccc12")
100
>>> observed_result("C[n+]1cc(P(=O)([O-])OCC2CC2)c2ccccc2n1")
90
>>> observed_result("C#CCOP(=O)([O-])c1c[n+](C)nc2ccccc12")
100
>>> observed_result("CCOP(=O)(O)c1c[n+](C)nc2ccccc12.O=C([O-])C(F)(F)F")
100
>>> observed_result("CC(C)OP(=O)([O-])c1c[n+](C)nc2ccccc12")
100
>>> observed_result("COP(=O)([O-])c1c(C)[n+](C)nc2ccccc12")
90
>>> observed_result("COc1cccc2c(P(=O)([O-])OC)c[n+](C)nc12")
80
>>> observed_result("CC(C)COP(=O)([O-])c1c[n+](C)nc2ccccc12")
90

----------
System: Echinochloa crus-galli (ECHCG)
Test: Post-emergence efficacy, glasshouse
Type: in vivo
Conditions: 1000 g/Ha, after 13 days, 100=total damage to plant, 0=no damage to plant
Parameter Control of weed species ECHCG: see the listing below.
assay_readout: Control of weed species ECHCG

>>> observed_result("COP(=O)([O-])c1c[n+](C)nc2c(C)cccc12 [Composition C15]")
50
>>> observed_result("COc1ccc2n[n+](C)cc(P(=O)([O-])OC)c2c1 [Composition C16]")
90
>>> observed_result("C[n+]1cc(P(=O)([O-])Oc2ccccc2)c2ccccc2n1 [Composition C11]")
20
>>> observed_result("CCOP(=O)(O)c1c[n+](C)nc2ccccc12.O=C([O-])C(F)(F)F [Composition C1]")
70
>>> observed_result("COCCOP(=O)([O-])c1c[n+](C)nc2ccccc12 [Composition C10]")
70

----------
Tested on: Digitaria sanguinalis (DIGSA)
Assay: Post-emergence efficacy, glasshouse
Format: in vivo
Settings: 1000 g/Ha, after 13 days, 100=total damage to plant, 0=no damage to plant
Description: Seeds of a variety of test species were shown in standard soil in pots. […] The test plants were then grown in a glasshouse under controlled conditions (at 24/16° C., day/night; 14 hours light; 65% humidity) and watered twice daily. After 13 days the test was evaluated (100=total damage to plant; 0=no damage to plant). […]
Parameter Control of weed species DIGSA: see the listing below.
assay_readout: Control of weed species DIGSA

>>> observed_result("C#CCOP(=O)([O-])c1c[n+](C)nc2ccccc12 [Composition C4]")
100
>>> observed_result("CC(C)OP(=O)([O-])c1c[n+](C)nc2ccccc12 [Composition C8]")
100
>>> observed_result("COP(=O)([O-])c1c[n+](C)nc2cc(C)ccc12 [Composition C14]")
80
>>> observed_result("COc1ccc2c(P(=O)([O-])OC)c[n+](C)nc2c1 [Composition C17]")
10
>>> observed_result("COP(=O)([O-])c1c[n+](C)nc2c(C)cccc12 [Composition C15]")
70
>>> observed_result("CCOP(=O)(O)c1c[n+](C)nc2ccccc12.O=C([O-])C(F)(F)F [Composition C1]")
90
>>> observed_result("CCOP(=O)(O)c1c[n+](C)nc2ccccc12.[Cl-] [Composition C3]")
100
>>> observed_result("CC(C)COP(=O)([O-])c1c[n+](C)nc2ccccc12 [Composition C26]")
60

----------
Test system: Eleusine indica (ELEIN)
Assay: Post-emergence efficacy, glasshouse
Format: in vivo
Settings: 1000 g/Ha, after 13 days, 100=total damage to plant, 0=no damage to plant
Method: Seeds of a variety of test species were shown in standard soil in pots. […] The test plants were then grown in a glasshouse under controlled conditions (at 24/16° C., day/night; 14 hours light; 65% humidity) and watered twice daily. After 13 days the test was evaluated (100=total damage to plant; 0=no damage to plant). […]
Parameter Control of weed species ELEIN: see the listing below.
assay_readout: Control of weed species ELEIN

>>> observed_result("COc1ccc2c(P(=O)([O-])OC)c[n+](C)nc2c1")
10
>>> observed_result("CCOP(=O)(O)c1c[n+](C)nc2ccccc12.[Cl-]")
90
>>> observed_result("C[n+]1cc(P(=O)([O-])OCC2CCCO2)c2ccccc2n1 (stereo not drawn)")
100
>>> observed_result("COc1ccc2n[n+](C)cc(P(=O)([O-])OC)c2c1")
100
>>> observed_result("CCOP(=O)(O)c1c[n+](C)nc2ccccc12.O=C([O-])C(F)(F)F")
90
>>> observed_result("C[n+]1cc(P(=O)([O-])Oc2ccccc2)c2ccccc2n1")
80
>>> observed_result("CC(C)COP(=O)([O-])c1c[n+](C)nc2ccccc12")
90
>>> observed_result("COP(=O)([O-])c1c[n+](C)nc2c(C)cccc12")
80
>>> observed_result("COP(=O)([O-])c1c[n+](C)nc2cc(C)ccc12")
100

----------
System: Eleusine indica (ELEIN)
Assay: Post-emergence efficacy, glasshouse
Type: in vivo
Conditions: 1000 g/Ha, after 13 days, 100=total damage to plant, 0=no damage to plant
assay_readout: Control of weed species ELEIN

>>> observed_result("COP(=O)([O-])c1c(C)[n+](C)nc2ccccc12")
80
>>> observed_result("C#CCOP(=O)([O-])c1c[n+](C)nc2ccccc12")
100
>>> observed_result("COCCOP(=O)([O-])c1c[n+](C)nc2ccccc12")
100
>>> observed_result("C[n+]1cc(P(=O)([O-])OCC(F)(F)F)c2ccccc2n1")
100
>>> observed_result("COc1cccc2c(P(=O)([O-])OC)c[n+](C)nc12")
100
>>> observed_result("C[n+]1cc(P(=O)([O-])OCC2CC2)c2ccccc2n1")
100
>>> observed_result("COP(=O)([O-])c1c[n+](C)nc2cc(C(F)(F)F)ccc12")
10
>>> observed_result("CC(C)OP(=O)([O-])c1c[n+](C)nc2ccccc12")
100
